targetSystem: Nuclear receptor subfamily 1 group I member 3 (Homo sapiens)
procedureText: ATG_CAR_TRANS: Attagene TRANS-FACTORIAL HepG2 Assay for human Constitutive Androstane Receptor (CAR) (AID 2282969);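 also: activators raise reporter mRNA above DMSO so AC50 marks induction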
recordedConditions: HepG2 Attagene TRANS-FACTORIAL CAR reporter
Inconclusive results are not listed. Activity calls are given as the source filed them. The calls were made as follows: active = hit-call score of the fitted dose curve at least 0.9, where 1 is the maximum; inconclusive = response in the unintended direction; inactive = score below 0.9.
measurementLabel: outcome

# count of solved cases: 6
CC1(C)C(=O)N(Cl)C(=O)N1Br = inactive
CS(=O)(=O)c1ccc(C2=C(c3ccccc3)C(=O)OC2)cc1 = inactive
CC(C)OCCO = inactive
O=c1c(O)c(-c2ccc(O)cc2)oc2cc(O)cc(O)c12 = inactive
O=C(Nc1ccc2c(O)c(N=Nc3ccc(N=Nc4ccc(S(=O)(=O)O)cc4)cc3)c(S(=O)(=O)O)cc2c1)c1ccccc1 = inactive
COc1cccc(OC)c1O = inactive

# next compound below
Entry "CCOc1ccc(NC(=O)CC(C)=O)cc1" : reported outcome = ?
inactive

Origin of the recorded values: PubChem BioAssay (EPA / NIEHS)
